The reader will find reported IC50 values listed item by item below.
TESTED SYSTEM: Cytochrome P450 11B1, mitochondrial (Homo sapiens)
Sequence (P15538 whole entry): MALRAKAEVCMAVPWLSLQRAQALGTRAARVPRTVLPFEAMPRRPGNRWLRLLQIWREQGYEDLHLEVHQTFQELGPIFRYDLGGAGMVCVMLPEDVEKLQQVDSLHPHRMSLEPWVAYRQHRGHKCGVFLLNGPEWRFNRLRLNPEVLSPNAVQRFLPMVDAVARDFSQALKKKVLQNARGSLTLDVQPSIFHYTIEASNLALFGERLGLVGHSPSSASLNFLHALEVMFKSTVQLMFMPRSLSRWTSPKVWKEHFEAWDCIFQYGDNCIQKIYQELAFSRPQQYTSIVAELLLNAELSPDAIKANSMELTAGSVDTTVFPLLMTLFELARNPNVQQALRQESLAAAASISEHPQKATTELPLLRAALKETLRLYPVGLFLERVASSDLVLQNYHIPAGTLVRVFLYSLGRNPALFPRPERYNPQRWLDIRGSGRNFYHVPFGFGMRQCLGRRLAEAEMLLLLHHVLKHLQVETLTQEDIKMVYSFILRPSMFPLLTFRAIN
METHOD NOTES: Inhibition of human CYP11B1 expressed in hamster V79MZh11B1 cells
ASSAY ENDPOINT: IC50 (µM)

{"COMPOUND": "Fc1ccc(-c2ccc3c(c2)CCC3c2ccncc2)cc1 (stereo not drawn)", "TESTED SYSTEM": "Cytochrome P450 11B1, mitochondrial (Homo sapiens)", "READOUT QUALIFIER": "=", "REPORTED RESULT": 1.08}
{"COMPOUND": "Oc1ccc(-c2ccc3c(c2)CCCC3c2ccncc2)cc1F (stereo not drawn)", "TESTED SYSTEM": "Cytochrome P450 11B1, mitochondrial (Homo sapiens)", "READOUT QUALIFIER": "=", "REPORTED RESULT": 1.37}
{"COMPOUND": "Fc1ccc(-c2ccc3c(c2)CCCC3c2ccncc2)cc1 (stereo not drawn)", "TESTED SYSTEM": "Cytochrome P450 11B1, mitochondrial (Homo sapiens)", "READOUT QUALIFIER": ">", "REPORTED RESULT": 5}
{"COMPOUND": "COc1ccc(-c2ccc3c(c2)CCCC3(O)c2ccncc2)cc1F (stereo not drawn)", "TESTED SYSTEM": "Cytochrome P450 11B1, mitochondrial (Homo sapiens)", "READOUT QUALIFIER": "=", "REPORTED RESULT": 0.686}
{"COMPOUND": "Fc1ccc(-c2ccc3c(c2)CCC=C3c2ccncc2)cc1F", "TESTED SYSTEM": "Cytochrome P450 11B1, mitochondrial (Homo sapiens)", "READOUT QUALIFIER": ">", "REPORTED RESULT": 20}
{"COMPOUND": "COc1ccc(-c2ccc3c(c2)CCC3(O)c2ccncc2)cc1F (stereo not drawn)", "TESTED SYSTEM": "Cytochrome P450 11B1, mitochondrial (Homo sapiens)", "READOUT QUALIFIER": "=", "REPORTED RESULT": 0.291}
{"COMPOUND": "OC1(c2ccncc2)CCCc2cc(-c3ccc(F)cc3)ccc21 (stereo not drawn)", "TESTED SYSTEM": "Cytochrome P450 11B1, mitochondrial (Homo sapiens)", "READOUT QUALIFIER": "=", "REPORTED RESULT": 1.16}
{"COMPOUND": "Oc1ccc(-c2ccc3c(c2)CCC=C3c2ccncc2)cc1F", "TESTED SYSTEM": "Cytochrome P450 11B1, mitochondrial (Homo sapiens)", "READOUT QUALIFIER": "=", "REPORTED RESULT": 2.75}

====

TESTED SYSTEM: Cytochrome P450 11B2, mitochondrial (Homo sapiens)
Sequence (P19099 whole entry): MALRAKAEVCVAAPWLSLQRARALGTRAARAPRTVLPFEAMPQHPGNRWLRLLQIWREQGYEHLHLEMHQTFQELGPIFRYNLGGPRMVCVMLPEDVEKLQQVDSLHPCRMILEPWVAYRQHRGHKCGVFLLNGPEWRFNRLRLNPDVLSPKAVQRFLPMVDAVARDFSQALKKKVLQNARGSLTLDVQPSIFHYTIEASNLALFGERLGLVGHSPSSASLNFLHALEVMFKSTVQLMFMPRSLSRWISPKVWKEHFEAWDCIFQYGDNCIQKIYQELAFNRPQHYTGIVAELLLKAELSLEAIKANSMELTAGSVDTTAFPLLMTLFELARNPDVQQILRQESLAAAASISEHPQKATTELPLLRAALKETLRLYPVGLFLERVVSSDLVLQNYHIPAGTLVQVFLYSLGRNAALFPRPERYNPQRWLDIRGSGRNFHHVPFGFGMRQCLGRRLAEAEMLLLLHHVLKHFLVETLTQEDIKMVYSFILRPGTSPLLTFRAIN
METHOD NOTES: Inhibition of human CYP11B2 expressed in hamster V79MZh11B2 cells
pIC50: −log10 of the molar value.
The reader will find reported pIC50 values listed item by item below.
ASSAY ENDPOINT: pIC50

{"COMPOUND": "Oc1ccc(-c2ccc3c(c2)CCC=C3c2ccncc2)cc1F", "ASSAY ENDPOINT": "pIC50", "REPORTED RESULT": 6.00}
{"COMPOUND": "OC1(c2ccncc2)CCCc2cc(-c3ccc(F)cc3)ccc21 (centres undefined)", "ASSAY ENDPOINT": "pIC50", "REPORTED RESULT": 6.08}
{"COMPOUND": "Fc1ccc(-c2ccc3c(c2)CCCC3c2ccncc2)cc1 (centres undefined)", "ASSAY ENDPOINT": "pIC50", "REPORTED RESULT": 6.29}
{"COMPOUND": "C[C@]12CC[C@H](O)CC1=CC[C@@H]1[C@@H]2CC[C@]2(C)C(c3cccnc3)=CC[C@@H]12", "ASSAY ENDPOINT": "pIC50", "REPORTED RESULT": 5.76}
{"COMPOUND": "Fc1ccc(-c2ccc3c(c2)CCC=C3c2ccncc2)cc1F", "ASSAY ENDPOINT": "pIC50", "REPORTED RESULT": 6.51}
{"COMPOUND": "Oc1ccc(-c2ccc3c(c2)CCCC3c2ccncc2)cc1F (centres undefined)", "ASSAY ENDPOINT": "pIC50", "REPORTED RESULT": 6.23}
{"COMPOUND": "COc1ccc(-c2ccc3c(c2)CCCC3(O)c2ccncc2)cc1F (centres undefined)", "ASSAY ENDPOINT": "pIC50", "REPORTED RESULT": 6.02}
{"COMPOUND": "COc1ccc(-c2ccc3c(c2)CCC3(O)c2ccncc2)cc1F (centres undefined)", "ASSAY ENDPOINT": "pIC50", "REPORTED RESULT": 6.36}
{"COMPOUND": "Fc1ccc(-c2ccc3c(c2)CCC3c2ccncc2)cc1 (centres undefined)", "ASSAY ENDPOINT": "pIC50", "REPORTED RESULT": 6.27}

====

TESTED SYSTEM: Steroid 17-alpha-hydroxylase/17,20 lyase (Homo sapiens)
Sequence (P05093 whole entry): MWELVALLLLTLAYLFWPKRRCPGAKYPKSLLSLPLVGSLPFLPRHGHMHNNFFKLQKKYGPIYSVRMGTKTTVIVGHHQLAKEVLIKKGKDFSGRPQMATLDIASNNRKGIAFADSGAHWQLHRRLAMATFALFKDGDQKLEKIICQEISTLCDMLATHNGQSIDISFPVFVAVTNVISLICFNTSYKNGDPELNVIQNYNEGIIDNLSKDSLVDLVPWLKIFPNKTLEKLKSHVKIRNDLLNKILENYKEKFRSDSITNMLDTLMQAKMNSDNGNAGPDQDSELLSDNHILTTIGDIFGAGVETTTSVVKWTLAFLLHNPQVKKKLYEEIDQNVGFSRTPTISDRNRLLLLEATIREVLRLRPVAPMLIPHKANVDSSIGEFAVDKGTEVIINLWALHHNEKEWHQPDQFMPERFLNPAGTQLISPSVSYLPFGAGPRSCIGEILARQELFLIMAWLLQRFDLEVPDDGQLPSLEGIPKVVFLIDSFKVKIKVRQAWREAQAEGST
METHOD NOTES: Inhibition of human recombinant CYP17 expressed in Escherichia coli coexpressing NADPH-P450 reductase

{"COMPOUND": "OC1(c2ccncc2)CCCc2cc(-c3ccc(F)cc3)ccc21 (centres undefined)", "IC50 [nM]": 587}
{"COMPOUND": "Fc1ccc(-c2ccc3c(c2)CCC3c2ccncc2)cc1 (centres undefined)", "IC50 [nM]": 233}
{"COMPOUND": "Fc1ccc(-c2ccc3c(c2)CC=C3c2cccnc2)cc1", "IC50 [nM]": 2350}
{"COMPOUND": "Oc1ccc(-c2ccc3c(c2)CCC=C3c2ccncc2)cc1F", "IC50 [nM]": 188}

// data source = ChEMBL document CHEMBL1156598
